experimentalSystem: furin, P09958;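 also: purified furin at 1:10 enzyme:substrate in 50 mM HEPES pH 7.5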
Sequence (P09958 whole entry): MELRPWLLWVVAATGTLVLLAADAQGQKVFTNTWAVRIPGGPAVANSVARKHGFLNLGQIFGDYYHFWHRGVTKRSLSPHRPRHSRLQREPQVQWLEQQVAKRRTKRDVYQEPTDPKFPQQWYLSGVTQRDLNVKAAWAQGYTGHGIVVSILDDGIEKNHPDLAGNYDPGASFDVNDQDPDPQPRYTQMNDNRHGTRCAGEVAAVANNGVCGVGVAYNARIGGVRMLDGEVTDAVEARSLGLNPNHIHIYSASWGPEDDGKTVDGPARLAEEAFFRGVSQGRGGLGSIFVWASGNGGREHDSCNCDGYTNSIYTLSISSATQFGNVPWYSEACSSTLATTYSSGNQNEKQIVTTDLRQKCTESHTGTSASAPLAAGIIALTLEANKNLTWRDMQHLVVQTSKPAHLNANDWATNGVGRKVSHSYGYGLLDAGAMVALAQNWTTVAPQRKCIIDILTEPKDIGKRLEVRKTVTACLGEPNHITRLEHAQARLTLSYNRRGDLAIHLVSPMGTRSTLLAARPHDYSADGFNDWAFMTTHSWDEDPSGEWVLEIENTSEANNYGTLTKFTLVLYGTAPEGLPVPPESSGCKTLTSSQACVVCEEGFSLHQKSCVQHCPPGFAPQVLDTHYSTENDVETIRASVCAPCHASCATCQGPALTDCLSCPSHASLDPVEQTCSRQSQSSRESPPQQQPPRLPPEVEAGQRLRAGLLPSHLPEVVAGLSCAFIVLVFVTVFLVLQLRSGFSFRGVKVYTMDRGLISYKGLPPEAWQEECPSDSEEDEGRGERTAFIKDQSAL
assayComment: furin cleavage Z-score vs untreated control; higher = more cleavage, active = 3.5 or more, inactive = 1 or less, 8 variable residues between constant flanks
reportedConditions: 7.5 min
The other results are listed elsewhere or left out. The true hit rate is not given.
Respond with a class label; see 1.0 (active), 0.0 (inactive)

These solved cases illustrate the format of a correct answer.
>  <biopolymerSequence>
CAEVVTSTWDAGNASASA [HC2251]

>  <cat>
0.0

$$$$
>  <biopolymerSequence>
CAVDVQYLYGAGNASASA [HC509]

>  <cat>
0.0

$$$$
>  <biopolymerSequence>
CAGRSRTKRSAGNASASA [FS-1332]

>  <cat>
1.0

$$$$
>  <biopolymerSequence>
CAEAWRSRRDAGNASASA [FS-761]

>  <cat>
1.0

$$$$
>  <biopolymerSequence>
CANTLHCPTDAGNASASA [HC449]

>  <cat>
0.0

$$$$
>  <biopolymerSequence>
CAEIVTSTWVAGNASASA [HC2164]

>  <cat>
0.0

$$$$

QUERY: Kindly provide the recorded test outcome for the following sequence: CAVLTRSRRDAGNASASA [FS-573]
RESULT: 1.0

QUERY: Called result for CAEVVTSRWVAGNASASA [HC2213]
RESULT: 0.0

QUERY: Record lookup: outcome of this test for CARAKRVSWDAGNASASA [FS-1681] ?
RESULT: 0.0

QUERY: Dear colleague, could you share the recorded outcome for CATPTVATRDAGNASASA [HC282] when you have a moment?
RESULT: 0.0

QUERY: Please let me know the test result on file for CAVYARVSRFAGNASASA [FS-517] .
RESULT: 0.0

QUERY: Dear colleague, could you share the recorded outcome for CAQPSSSRRDAGNASASA [FS-1251] when you have a moment?
RESULT: 0.0

QUERY: Lab log entry: CASTPCSAVLAGNASASA [HC2550] — outcome as called in the assay?
RESULT: 0.0

QUERY: Identify the outcome logged in this assay for the sequence shown: CARAKRNAVLAGNASASA [FS-2545]
RESULT: 1.0

QUERY: Kindly provide the recorded test outcome for the following sequence: CAHRGVTKRSAGNASASA [FS-1593]
RESULT: 1.0
